Reference for the values: the NIST ThermoML archive (doi:10.1021/je900550v)

condition.parameters: 323.65 K; 101.33 kPa; Liquid; Vibrating tube method
reported.endpoint: mass density (kg/m3)

1) CC(=O)[O-].C[NH2+]CCO [N-methyl-2-hydroxyethylammonium acetate]    1085.31
2) C[NH2+]CCO.O=C[O-] [2-hydroxy-N-methylethanaminium formate]    1114.06
3) CCCC(=O)[O-].C[NH2+]CCO [N-methyl-2-hydroxyethylammonium butanoate]    1021.91
4) CCC(=O)[O-].C[NH2+]CCO [2-hydroxy-N-methylethanaminium propionate]    1054.48
5) CC(C)C(=O)[O-].C[NH2+]CCO [2-hydroxy-N-methylethanaminium isobutyrate]    1026.69
6) CCCCC(=O)[O-].C[NH2+]CCO [2-hydroxy-N-methylethanaminium pentanoate]    998.891
